# test_system: hemagglutinin (HA) of influenza A/Japan/305/57 (H2N2) on whole virions (Influenza A virus A/Japan/305/1957(H2N2), UniProt P03451 16-562)
# experimental_details: ELISA; BCC supernatant on coated inactivated whole virions
ELISA virus binding (OD450) less than 0.07 OD450 is Condition met; ELISA virus binding (OD450) greater than or equal to 0.07 OD450 is Condition not met.

Inquiry: Is it true that ELISA virus binding (OD450) reported for TCN-563 (5237_B21) (antibody, V domains shown) VH: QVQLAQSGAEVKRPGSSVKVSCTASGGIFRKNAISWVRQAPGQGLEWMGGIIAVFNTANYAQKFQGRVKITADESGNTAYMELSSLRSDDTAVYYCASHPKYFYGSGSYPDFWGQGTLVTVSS VL: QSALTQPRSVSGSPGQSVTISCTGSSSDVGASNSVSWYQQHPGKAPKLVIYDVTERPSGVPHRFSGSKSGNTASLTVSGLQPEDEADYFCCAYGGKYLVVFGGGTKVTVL is less than 0.07 OD450?
Reply text: Condition not met

Inquiry: In plain terms, does TCN-521 (3280_D18) (antibody, V domains shown) VH: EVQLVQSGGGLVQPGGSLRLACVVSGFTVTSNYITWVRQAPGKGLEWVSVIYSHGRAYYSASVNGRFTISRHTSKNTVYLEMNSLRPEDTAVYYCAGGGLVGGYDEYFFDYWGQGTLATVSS VL: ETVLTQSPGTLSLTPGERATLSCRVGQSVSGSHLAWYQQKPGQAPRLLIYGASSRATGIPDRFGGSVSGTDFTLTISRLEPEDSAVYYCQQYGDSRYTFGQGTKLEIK come in under 0.07 OD450 for ELISA virus binding (OD450)?
Reply text: Condition not met

Inquiry: Dear colleague, could you confirm whether ELISA virus binding (OD450) of TCN-542 (5079_A16) (antibody, V domains shown) VH: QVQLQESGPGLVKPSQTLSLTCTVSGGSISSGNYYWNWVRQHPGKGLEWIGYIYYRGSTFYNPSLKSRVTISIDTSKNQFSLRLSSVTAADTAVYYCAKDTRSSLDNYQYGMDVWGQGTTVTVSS VL: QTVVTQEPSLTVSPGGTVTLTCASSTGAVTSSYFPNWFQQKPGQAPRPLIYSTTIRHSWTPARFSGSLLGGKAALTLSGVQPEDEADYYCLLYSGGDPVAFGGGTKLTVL falls below 0.07 OD450? Thanks.
Reply text: Condition not met

Inquiry: Given TCN-545 (5082_I15) (antibody, V domains shown) VH: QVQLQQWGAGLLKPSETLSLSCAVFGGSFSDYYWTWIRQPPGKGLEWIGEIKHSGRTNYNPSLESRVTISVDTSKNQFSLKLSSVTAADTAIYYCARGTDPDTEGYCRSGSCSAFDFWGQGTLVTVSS VL: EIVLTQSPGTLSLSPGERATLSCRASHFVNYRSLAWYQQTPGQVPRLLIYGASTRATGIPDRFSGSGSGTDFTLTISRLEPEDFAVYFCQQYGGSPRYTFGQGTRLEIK , is recorded ELISA virus binding (OD450) strictly lower than 0.07 OD450?
Reply text: Condition met
